Origin of the recorded values: patent US20110178396A1

Measured Organ distribution Thyroid by item
Tested on: B16F0 melanoma tumour
Assay: Biodistribution in B16 melanoma bearing mice
Type: in vivo, C57BL/6J mice
Conditions: B16F0 tumour, C57BL/6J mice, 6 h, mean ± S.D., n = 5

Compound | Organ distribution Thyroid (% ID/organ)
O=C(c1cncc(I)c1)N1CCN(Cc2ccccc2)CC1 [[^123I]20] | 1.1
CCCN(CCC)CCCCNC(=O)c1cncc(I)c1 [[^123I]17] | 4.0
CCN(CC)CCNC(=O)c1ccc(I)nc1 [[^123I]14] | 3.3
CCN(CC)CCNC(=O)c1cncc(I)c1 [[^123I]11] | 1.8
